# Protocol: qHTS assay for small molecule activators of the heat shock response signaling pathway - cell viability counter screen (AID 743209); also: nearly all actives have a fitted effect of over 50% in size
# Reported Conditions: HSE-bla HeLa viability, CellTiter-Glo luminescence, 5 h; series mostly up to 62.6 µM
Records with an inconclusive call do not appear. Calls of active or inactive are those of the source. Calls follow the shape of the dose curve; as a rule, active = well fitted cell-killing curve with a large enough effect in the repeat runs; inconclusive = weak or mixed curves, or effect the other way; inactive = no such curve, though single readings can be large or run the other way.

Molecule | outcome
CN(C)CCCOc1nn(Cc2ccccc2)c2ccccc12 | inactive
CN(C)CCCNCCCN | inactive
O=C(c1ccccc1)c1ccc2n1CCC2C(=O)O (configuration not stated) | inactive
CCOc1ccc(NC(=O)CC(C)=O)cc1 | inactive
CCCCCCCCCC=O | inactive
Nc1nc(N)c2nc(CNc3ccc(C(=O)N[C@@H](CCC(=O)O)C(=O)O)cc3)cnc2n1 | inactive
CCc1nn(C2CCCCC2)c2cc(C3(C#N)CCC(C(=O)O)CC3)ccc12 (configuration not stated) | inactive
